Assay: Pharmacokinetics after single topical application in rats (plasma, tendon, skin)
Assay type: in vivo, rat
Conditions: male, Sprague Dawley, rat, tendon, topical or ocular, 10 mg/mL, Tendon; Group 2, 10 mg/mL, 1% BA, single topical
readout: Tmax (h)
State just the number; it will be interpreted in h.

input: Quick one: Tmax of `COc1ccc(NC(=O)c2n[nH]c3ccc(-c4cncc(CN5CCCCC5)c4)cc23)cn1` ?
output: 1

---

Test: Pharmacokinetics after single topical application in rats (plasma, tendon, skin)
Type: in vivo, rat
Details: male, Sprague Dawley, rat, plasma, topical or ocular, 10 mg/mL, Plasma; Group 3, 10 mg/mL, no preservative (0.5% Tween 80), single topical
readout: Cmax (ng/mL)
Write the value in ng/mL as a bare number.

input: So what's the measured Cmax for this one? COc1ccc(NC(=O)c2n[nH]c3ccc(-c4cncc(CN5CCCCC5)c4)cc23)cn1 [compound 175]
output: 1.94

---

Tested on: Wnt-responsive promoter driving firefly luciferase in SW480 cells
Experiment: Wnt reporter (SP5 promoter-luciferase) screening assay in SW480 cells
Type: cell-based
Settings: Homo sapiens, 24-40 h, top concentration ten micromolar
Entries and their EC50 values follow.
Reply numerically in nM, unit not repeated.

O=C(Nc1cncc(F)c1)c1n[nH]c2ccc(-c3cccnc3)cc12 | 120

input: // EC50 lookup, key: `CS(=O)(=O)c1ccc(NC(=O)c2n[nH]c3ccc(-c4cncc(CN5CCCCC5)c4)cc23)cn1`
output: 27

input: Look up EC50 for this molecule: `O=C(Nc1ccc(-c2ccccc2)nc1)c1n[nH]c2ccc(-c3cncc(CN4CCCCC4)c3)cc12`
output: 101

input: What EC50 value was documented for this molecule, `O=C(Nc1ccc(C(F)(F)F)nc1)c1n[nH]c2ccc(-c3cccnc3)cc12` ?
output: 200

input: Request the reported EC50 associated with `O=C(NC1CCCCC1)c1cncc(-c2ccc3[nH]nc(C(=O)Nc4cccnc4)c3c2)c1`
output: 3100

input: Entry under review: `O=C(Nc1cccnc1)c1n[nH]c2ccc(-c3cncc(NC(=O)N4CCOCC4)c3)cc12` . Reported EC50?
output: 1250

input: Field request: EC50 | item: `CN1CCN(c2ccc(NC(=O)c3n[nH]c4ccc(-c5cncc(CN6CCCCC6)c5)cc34)cn2)CC1`
output: 41

---

Assay: Pharmacokinetics after single topical application in rats (plasma, tendon, skin)
Format: in vivo, rat
Details: male, Sprague Dawley, rat, tendon and plasma, topical, all dose groups, single topical administration; read-out: tendon to plasma ratios, range across groups
readout: Kp

input: Please report the recorded Kp for `COc1ccc(NC(=O)c2n[nH]c3ccc(-c4cncc(CN5CCCCC5)c4)cc23)cn1` .
output: 202 to 4140

---

Assay: Pharmacokinetics after single topical application in rats (plasma, tendon, skin)
Assay type: in vivo, rat
Conditions: male, Sprague Dawley, rat, skin, topical or ocular, 10 mg/mL, Skin; Group 2, 10 mg/mL, 1% BA, single topical
readout: Tmax (h)
Report only the number, with the unit h understood.

input: What value of measured Tmax is listed for `COc1ccc(NC(=O)c2n[nH]c3ccc(-c4cncc(CN5CCCCC5)c4)cc23)cn1` ?
output: 7

---

System: Wnt-responsive promoter driving firefly luciferase in SW480 cells
Assay: Wnt reporter (SP5 promoter-luciferase) screening assay in SW480 cells
Assay type: cell-based
Conditions: Homo sapiens, 24-40 h, top concentration ten micromolar
readout: EC50 (nM)
Write the value in nM as a bare number.

O=C(Nc1ccc2c(c1)OCCO2)c1n[nH]c2ccc(-c3cncc(CN4CCCCC4)c3)cc12 | 123
O=C(Nc1cncc(F)c1)c1n[nH]c2ccc(-c3cncc(CN4CCCCC4)c3)cc12 | 66

Next up:
input: Using the record for `CN(C)Cc1cncc(NC(=O)c2n[nH]c3ccc(-c4cncc(CN5CCCC5)c4)cc23)c1` , report its EC50.
output: 33

---

Test: Pharmacokinetics after single topical application in rats (plasma, tendon, skin)
Type: in vivo, rat
Details: male, Sprague Dawley, rat, tendon and plasma, topical, 10 mg/mL, Tendon to plasma; Group 2, 10 mg/mL, 1% BA; read-out: Tissue/Plasma AUC Ratio
readout: Kp
Give only the figure.

input: Find the recorded Kp belonging to COc1ccc(NC(=O)c2n[nH]c3ccc(-c4cncc(CN5CCCCC5)c4)cc23)cn1 [compound 175] and report it.
output: 202

---

Assay: Pharmacokinetics after single topical application in rats (plasma, tendon, skin)
Format: in vivo, rat
Settings: male, Sprague Dawley, rat, tendon and plasma, topical, 1 mg/mL, Tendon to plasma; Group 1, 1 mg/mL, 1% BA; read-out: Tissue/Plasma AUC Ratio
readout: Kp
Write the value as a bare number.

input: Recorded Kp for COc1ccc(NC(=O)c2n[nH]c3ccc(-c4cncc(CN5CCCCC5)c4)cc23)cn1 [compound 175] , please?
output: 3330

---

Experiment: Pharmacokinetics after single topical application in rats (plasma, tendon, skin)
Format: in vivo, rat
Conditions: male, Sprague Dawley, rat, plasma, topical or ocular, 10 mg/mL, Plasma; Group 3, 10 mg/mL, no preservative (0.5% Tween 80), single topical
readout: AUC(0-t) (ng·h/mL)
The figure you give is taken to be in ng·h/mL; do not add the unit.

input: Entry `COc1ccc(NC(=O)c2n[nH]c3ccc(-c4cncc(CN5CCCCC5)c4)cc23)cn1` : reported AUC(0-t) = ?
output: 6.79

---

Item-by-item account of pEC50
Tested on: Wnt-responsive promoter driving firefly luciferase in SW480 cells
Test: Wnt reporter (SP5 promoter-luciferase) screening assay in SW480 cells
Format: cell-based
Details: Homo sapiens, 24-40 h, top concentration ten micromolar
Keep it numeric: pEC50 is minus log10 of the concentration in mol/L.

Worked cases, pEC50 given:
O=C(Nc1ccc(N2CCOCC2)nc1)c1n[nH]c2ccc(-c3cncc(CN4CCCCC4)c3)cc12 [compound 69] | 7.30
Cc1cc(NC(=O)c2n[nH]c3ccc(-c4cncc(CN5CCCCC5)c4)cc23)cnc1N1CCC1 [compound 173] | 7.44
CN1CCN(c2cncc(-c3ccc4[nH]nc(C(=O)Nc5ccc(N6CCCC6)nc5)c4c3)c2)CC1 [compound 186] | 6.34
O=C(Nc1cnccc1C(F)(F)F)c1n[nH]c2ccc(-c3cncc(CN4CCCCC4)c3)cc12 [compound 47] | 7.15
Cc1cc(NC(=O)c2n[nH]c3ccc(-c4cncc(CN5CCCCC5)c4)cc23)cnc1N1CCCC1 [compound 172] | 7.22

input: # get_value(readout='pEC50', item= NC(=O)c1ccc(NC(=O)c2n[nH]c3ccc(-c4cncc(CN5CCCCC5)c4)cc23)cn1 [compound 180] )
output: 7.89

input: // query pEC50 value for entry O=C(Nc1cncc(Cc2ccccc2)c1)c1n[nH]c2ccc(-c3cncc(CN4CCCCC4)c3)cc12 [compound 80]
output: 6.80

input: # pEC50 lookup, item O=C(Nc1ccc(N2CCC2)nc1)c1n[nH]c2ccc(-c3cncc(CN4CCCCC4)c3)cc12 [compound 174]
output: 7.32

input: Dear colleague, I am looking for the recorded pEC50 of the following molecule: O=C(Nc1ccc(C(F)(F)F)nc1)c1n[nH]c2ccc(-c3cncc(CN4CCOCC4)c3)cc12 [compound 68]
output: 7.32

input: Fill in the blank: the reported pEC50 of O=C(NC1CCCC1)c1ccc(NC(=O)c2n[nH]c3ccc(-c4cncc(CN5CCCCC5)c4)cc23)cn1 [compound 184] is ____.
output: 7.40

input: Consider the molecule shown here: COc1ccc(-c2ccc3[nH]nc(C(=O)Nc4cccnc4)c3c2)cn1 [compound 54] What is its recorded pEC50?
output: 6.80

input: Requested read-out: pEC50. Entry: O=C(Nc1cccnc1)c1n[nH]c2ccc(-c3cncc(NC(=O)C4CC4)c3)cc12 [compound 41]
output: 7.17

input: Please look up its pEC50: CN(C)CCN(C)c1ccc(NC(=O)c2n[nH]c3ccc(-c4cncc(CN5CCCCC5)c4)cc23)cn1 [compound 74]
output: 7.19

---

System: Wnt-responsive promoter driving firefly luciferase in SW480 cells
Assay: Wnt reporter (SP5 promoter-luciferase) screening assay in SW480 cells
Format: cell-based
Settings: Homo sapiens, 24-40 h, top concentration ten micromolar
readout: EC50

Worked examples follow.
O=C(Nc1cccc(-c2cccc(F)c2)c1)c1n[nH]c2ccc(-c3cccnc3)cc12 [compound 5] | ≥ 10000 nM
O=C(Nc1ccc(C(F)(F)F)nc1)c1n[nH]c2ccc(-c3cncc(NC(=O)C4CC4)c3)cc12 [compound 39] | 65 nM
O=C(Nc1ccc(-c2ccc(F)cc2)nc1)c1n[nH]c2ccc(-c3cncc(CN4CCCCC4)c3)cc12 [compound 73] | 322 nM

input: Which EC50 is reported for this compound? O=C(Nc1ccnnc1)c1n[nH]c2ccc(-c3cccnc3)cc12 [compound 14]
output: 106 nM

input: Endpoint output: EC50 of CN(C)Cc1cncc(-c2ccc3[nH]nc(C(=O)Nc4cccnc4)c3c2)c1 [compound 40] . Value?
output: 65 nM

input: Param item = CN1CCC(NC(=O)c2n[nH]c3ccc(-c4cncc(CN5CCCCC5)c4)cc23)CC1 [compound 87] ; retrieve measured EC50.
output: 2440 nM

input: What does the data say about its EC50? Entry: O=C(Nc1cccnc1)c1n[nH]c2ccc(-c3cncc(CN4CCC(F)(F)C4)c3)cc12 [compound 188]
output: 9 nM

input: EC50 for O=C(Nc1ccc(-c2cccc(F)c2)nc1)c1n[nH]c2ccc(-c3cncc(CN4CCCCC4)c3)cc12 [compound 72] ?
output: 215 nM

input: Please give the measured EC50 for this compound: O=C(Nc1cccnc1)c1n[nH]c2ccc(-c3cncc(Oc4ccccc4)c3)cc12 [compound 56]
output: 160 nM
